Source listed as the supplement of paper PMC10567573.

B1: ZNF449 (parent)
chain: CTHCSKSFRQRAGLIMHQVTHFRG

# Variants of: B1
# measurement_notes: protein stability index of a GFP-peptide fusion (GPS, HEK-293T) (PSI 1-6); higher = more stable;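 note: lentivirally expressed fusions sorted by FACS into six bins by GFP to DsRed ratio, PSI derived from sequencing read proportions per bin multiplied by bin number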
# run_parameters: c terminus: a fixed tail appended
metric: protein stability index
Just the number, please.

L14S	1.9

Problem: Could you share which protein stability index value was measured for R9G ?
Result: 2.18

Problem: So what's the measured protein stability index for this one? H21R
Result: 1.85

Problem: Please give the measured protein stability index for this variant: R23E
Result: 2.93

Problem: Suppose we examine the variant F8R ; what protein stability index value has been reported?
Result: 2.1

Problem: What does the data say about its protein stability index? Entry: L14N
Result: 1.49

Problem: Which protein stability index is listed for T20Y ?
Result: 2.05

Problem: Any idea what its protein stability index is? The variant is R11P
Result: 1.84

Problem: # input variant: G24D ; wanted: its protein stability index
Result: 3.59

Problem: Which protein stability index is listed for G13C ?
Result: 1.07

Problem: Quick check: protein stability index of Q10N ?
Result: 2.15

Problem: Tell me the measured protein stability index of L14E , please.
Result: 1.95

Problem: Which value of protein stability index has been reported for F22N in the records?
Result: 2.39

Problem: What value of measured protein stability index is listed for C4R ?
Result: 2.11

Problem: Would you kindly share the measured protein stability index for C4A ?
Result: 2.6

Problem: Give its protein stability index value. Item: H21V
Result: 1.91

Problem: Any idea what its protein stability index is? The variant is T2H
Result: 1.92

Problem: Name the recorded protein stability index for G24A .
Result: 2.82

Problem: Fill in the blank: the reported protein stability index of V19K is ____.
Result: 3.79

Problem: Name the recorded protein stability index for H3R .
Result: 1.77

Problem: I have this variant here, H3D , and I need its recorded protein stability index.
Result: 3.44

Problem: Would you mind telling me what protein stability index value was observed for C4I ?
Result: 2.58

Problem: Return reported protein stability index; argument: T2S
Result: 1.98

Problem: Sample Q18A — what was its protein stability index?
Result: 1.51

Problem: Consider the variant T2C and give its measured protein stability index.
Result: 2.09

Problem: Given V19N , state its recorded protein stability index.
Result: 2.82

Problem: Quick one: protein stability index for I15E ?
Result: 3.59
